Molecular target: T1, HUMAN B7H3 (Biacore analyte) (human, UniProt Q5ZPR3 29-461, limits assumed)
T1 construct: also called hB7H3
T1 sequence (looked up): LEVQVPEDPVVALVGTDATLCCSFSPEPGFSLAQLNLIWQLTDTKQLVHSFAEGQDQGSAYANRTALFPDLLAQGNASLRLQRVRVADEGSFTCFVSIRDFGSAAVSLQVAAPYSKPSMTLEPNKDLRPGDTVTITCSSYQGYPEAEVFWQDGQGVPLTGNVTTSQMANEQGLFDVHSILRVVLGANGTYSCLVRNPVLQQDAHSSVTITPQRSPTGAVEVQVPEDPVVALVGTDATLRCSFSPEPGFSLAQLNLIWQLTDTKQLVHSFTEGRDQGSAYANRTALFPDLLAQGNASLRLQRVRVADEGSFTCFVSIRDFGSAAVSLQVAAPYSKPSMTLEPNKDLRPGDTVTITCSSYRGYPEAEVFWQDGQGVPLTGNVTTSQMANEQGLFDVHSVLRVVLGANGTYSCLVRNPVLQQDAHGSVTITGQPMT
Assay: SPR, Biacore 8K, antibody captured, B7H3 as analyte, 1:1 binding
PROPERTY: koff (s⁻¹)
Numbers only here, please. The scale is s⁻¹.

Some entries whose results are on file:
1. 10-G6-C4-B2_hVH2-VL1_PTM (antibody, V domains shown, humanized, PTM-optimized antibody from 10-G6-C4-B2) VH: EVQLVESGGGLVQPGGSLRLSCATSGFTLSDYYMSWVRQAPGKGLEWVSFMRNKANAYTTEYSASVRGRFTISRDTSKSTIYLQMNSLRAEDTAVYYCVRDREGRPFAYWGQGTLVTVSS VL: DIVMTQSPDSLAVSLGERATINCKSSQSLLNAINQKNFLTWYQQKPGQPPKLLIYWASTRESGVPDRFSGSGSGTDFTLTISSLQAEDLAVYYCQNDYTYPLTFGQGTKLEIK: 7.26e-05
2. 10-G6-C4-B2 (human IgG1 chimeric antibody) (antibody, V domains shown, human IgG1 chimeric antibody of the mouse clone) VH: EVQLVESGGGLVQPGGSLRLSCATSGFTLSDYYMSWVRQPPGKAPEWLGFMRNKANGYTTEYSASVRGRFTISRDTSQSIIYLQMNTLRAEDGATYYCVRDRDGRPFAYWGQGTLVTVSA VL: DIVMTQSPSSLTVTAGEKVTMSCKSSQSLLNSINQKNFLTWYQQKPGQPPKLLIYWASTRESGVPDRFTGSGSGTDFTLTISSVQAEDLAIYYCQNDYTYPLTFGTGTKLELK: 8.97e-05
3. 10-G6-C4-B2_hVH5-VL1_PTM (antibody, V domains shown, humanized, PTM-optimized antibody from 10-G6-C4-B2) VH: EVQLVESGGGLVQPGRSLRLSCTTSGFTLSDYYMSWVRQAPGKGLEWVGFMRNKANAYTTEYSASVRGRFTISRDTSKSIIYLQMNSLKTEDTAVYYCVRDREGRPFAYWGQGTLVTVSS VL: DIVMTQSPDSLAVSLGERATINCKSSQSLLNAINQKNFLTWYQQKPGQPPKLLIYWASTRESGVPDRFSGSGSGTDFTLTISSLQAEDLAVYYCQNDYTYPLTFGQGTKLEIK: 1.37e-05

Measured koff of 10-G6-C4-B2_hVH4-VL1_PTM (antibody, V domains shown, humanized, PTM-optimized antibody from 10-G6-C4-B2) VH: EVQLVESGGGLIQPGGSLRLSCATSGFTLSDYYMSWVRQPPGKGLEWVSFMRNKANAYTTEYSASVRGRFTISRDTSKSTIYLQMNSLRAEDTAVYYCVRDREGRPFAYWGQGTLVTVSS VL: DIVMTQSPDSLAVSLGERATINCKSSQSLLNAINQKNFLTWYQQKPGQPPKLLIYWASTRESGVPDRFSGSGSGTDFTLTISSLQAEDLAVYYCQNDYTYPLTFGQGTKLEIK : 0.000155

Measured koff of 10-G6-C4-B2_hVH4-VL2_PTM (antibody, V domains shown, humanized, PTM-optimized antibody from 10-G6-C4-B2) VH: EVQLVESGGGLIQPGGSLRLSCATSGFTLSDYYMSWVRQPPGKGLEWVSFMRNKANAYTTEYSASVRGRFTISRDTSKSTIYLQMNSLRAEDTAVYYCVRDREGRPFAYWGQGTLVTVSS VL: DIVMTQSPLSLPVTPGEPASISCKSSQSLLNAINQKNFLTWYLQKPGQSPQLLIYWASTRESGVPDRFSGSGSGTDFTLKISRVEAEDLGVYYCQNDYTYPLTFGQGTKLEIK : 7.12e-05

Measured koff of 10-G6-C4-B2_hVH5-VL3_PTM (antibody, V domains shown, humanized, PTM-optimized antibody from 10-G6-C4-B2) VH: EVQLVESGGGLVQPGRSLRLSCTTSGFTLSDYYMSWVRQAPGKGLEWVGFMRNKANAYTTEYSASVRGRFTISRDTSKSIIYLQMNSLKTEDTAVYYCVRDREGRPFAYWGQGTLVTVSS VL: DIQMTQSPSSLSASVGDRVTITCKSSQSLLNAINQKNFLTWYQQKPGKAPKLLIYWASTRESGVPSRFSGSGSGTDFTLTISSLQPEDLATYYCQNDYTYPLTFGQGTKLEIK : 1.01e-06
